test-name: AUC (0 to t) in mouse at 10 mg/kg, po
Format: ADME, organism-based
Set-up: dose 10 mg/kg
recorded-conditions: in vivo
readout-label: AUC(0-t)

Q) # AUC(0-t) lookup, item `Cc1nc(NC(=O)CN2CCN(C)CC2)sc1-c1ccc2c(/C=C/c3ccccn3)n[nH]c2c1`
A) 1430 ng·h/mL

====

test-name: AUC (0 to t) in Beagle dog at 1 mg/kg, iv
Assay type: ADME, organism-based, Canis lupus familiaris
Set-up: dose 1 mg/kg
recorded-conditions: in vivo
readout-label: AUC(0-t) (ng·h/mL)
Numbers only, in ng·h/mL.

Q) # AUC(0-t) lookup, item `Cc1nc(NC(=O)CN2CCN(C)CC2)sc1-c1ccc2c(/C=C/c3ccccn3)n[nH]c2c1`
A) 323

====

measured-target: VEGFR2 (vascular endothelial growth factor receptor 2), wild type, TEL fusion (Homo sapiens, UniProt P35968)
Sequence (P35968 whole entry, the tested form may be a part): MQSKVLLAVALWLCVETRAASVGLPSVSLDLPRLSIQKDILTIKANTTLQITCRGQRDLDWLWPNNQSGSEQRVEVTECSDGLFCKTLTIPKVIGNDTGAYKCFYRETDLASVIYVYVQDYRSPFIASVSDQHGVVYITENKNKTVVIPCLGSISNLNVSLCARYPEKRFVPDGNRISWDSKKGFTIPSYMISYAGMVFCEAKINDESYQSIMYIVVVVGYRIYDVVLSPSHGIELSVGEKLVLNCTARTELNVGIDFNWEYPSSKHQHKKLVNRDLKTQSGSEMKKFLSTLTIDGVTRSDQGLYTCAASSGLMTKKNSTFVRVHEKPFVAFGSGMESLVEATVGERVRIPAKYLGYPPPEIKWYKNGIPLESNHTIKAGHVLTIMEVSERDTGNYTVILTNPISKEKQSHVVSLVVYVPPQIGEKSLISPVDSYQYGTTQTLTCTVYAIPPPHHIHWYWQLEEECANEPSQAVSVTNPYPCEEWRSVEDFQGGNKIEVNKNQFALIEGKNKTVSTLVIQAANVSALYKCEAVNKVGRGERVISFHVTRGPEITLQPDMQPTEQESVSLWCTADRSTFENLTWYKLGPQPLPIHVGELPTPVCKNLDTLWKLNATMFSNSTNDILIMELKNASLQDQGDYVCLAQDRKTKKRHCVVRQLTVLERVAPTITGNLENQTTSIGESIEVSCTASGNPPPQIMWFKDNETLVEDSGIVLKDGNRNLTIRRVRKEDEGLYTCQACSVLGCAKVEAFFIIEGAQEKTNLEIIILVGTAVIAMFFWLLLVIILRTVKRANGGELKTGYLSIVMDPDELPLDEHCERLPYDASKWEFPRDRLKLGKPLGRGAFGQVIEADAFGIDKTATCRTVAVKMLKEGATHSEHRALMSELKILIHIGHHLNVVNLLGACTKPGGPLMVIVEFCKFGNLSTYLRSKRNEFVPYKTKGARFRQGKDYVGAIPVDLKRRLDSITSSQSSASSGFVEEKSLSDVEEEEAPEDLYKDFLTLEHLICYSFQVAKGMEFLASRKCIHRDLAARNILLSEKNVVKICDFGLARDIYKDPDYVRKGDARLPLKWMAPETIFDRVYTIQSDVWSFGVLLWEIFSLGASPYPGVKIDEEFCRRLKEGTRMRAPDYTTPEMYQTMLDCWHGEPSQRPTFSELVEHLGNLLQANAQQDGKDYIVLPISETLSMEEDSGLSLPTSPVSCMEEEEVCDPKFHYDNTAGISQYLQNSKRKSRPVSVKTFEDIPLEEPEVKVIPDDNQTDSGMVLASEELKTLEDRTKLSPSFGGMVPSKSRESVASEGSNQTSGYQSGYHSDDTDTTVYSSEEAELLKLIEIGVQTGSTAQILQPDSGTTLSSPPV
test-name: Inhibition of wild type TEL fused VEGFR2 (unknown origin) transfected in mouse BAF3 cells assessed as growth inhibition after 72 hrs by CCK8 assay
Assay type: cell-based
recorded-conditions: mouse BaF3 cells transfected with wild type TEL-fused VEGFR2
# strict inequality: GI50 at 72 h < 5 nM yields TRUE, everything else yields FALSE

Observe how each entry below is paired with its result.
Q) Take the molecule `Cc1nc(NC(=O)CN2CCN(CCO)CC2)sc1-c1ccc2c(/C=C/c3ccccn3)n[nH]c2c1` and say whether its GI50 at 72 h is less than 5 nM.
A) FALSE

Q) Ok, now `Cc1nc(NC(=O)CC2CCN(C)CC2)sc1-c1ccc2c(/C=C/c3ccccn3)n[nH]c2c1`
A) FALSE

Q) Ok, now `Cc1nc(NC(=O)Cc2cccc(C(F)(F)F)c2)sc1-c1ccc2c(/C=C/c3ccccn3)n[nH]c2c1`
A) FALSE

Next:
Q) Take the molecule `Cc1ccc(-c2n[nH]c3cc(SCCC(=O)Nc4ccc(CN5CCN(C)CC5)c(C(F)(F)F)c4)ccc23)cn1` and say whether its GI50 at 72 h is less than 5 nM.
A) TRUE

Q) Ok, now `Cc1nc(NC(=O)CN2CCN(C)CC2)sc1-c1ccc2c(-c3cncc(F)c3)n[nH]c2c1`
A) FALSE

Q) Ok, now `CN1CCN(Cc2ccc(C(=O)NCCCSc3ccc4c(/C=C/c5ccccn5)n[nH]c4c3)cc2C(F)(F)F)CC1`
A) TRUE

Q) Ok, now `CC(=O)Nc1nc(C)c(-c2ccc3c(/C=C/c4ccccn4)n[nH]c3c2)s1`
A) FALSE

====

measured-target: UniProt P09619
Sequence (P09619 whole entry): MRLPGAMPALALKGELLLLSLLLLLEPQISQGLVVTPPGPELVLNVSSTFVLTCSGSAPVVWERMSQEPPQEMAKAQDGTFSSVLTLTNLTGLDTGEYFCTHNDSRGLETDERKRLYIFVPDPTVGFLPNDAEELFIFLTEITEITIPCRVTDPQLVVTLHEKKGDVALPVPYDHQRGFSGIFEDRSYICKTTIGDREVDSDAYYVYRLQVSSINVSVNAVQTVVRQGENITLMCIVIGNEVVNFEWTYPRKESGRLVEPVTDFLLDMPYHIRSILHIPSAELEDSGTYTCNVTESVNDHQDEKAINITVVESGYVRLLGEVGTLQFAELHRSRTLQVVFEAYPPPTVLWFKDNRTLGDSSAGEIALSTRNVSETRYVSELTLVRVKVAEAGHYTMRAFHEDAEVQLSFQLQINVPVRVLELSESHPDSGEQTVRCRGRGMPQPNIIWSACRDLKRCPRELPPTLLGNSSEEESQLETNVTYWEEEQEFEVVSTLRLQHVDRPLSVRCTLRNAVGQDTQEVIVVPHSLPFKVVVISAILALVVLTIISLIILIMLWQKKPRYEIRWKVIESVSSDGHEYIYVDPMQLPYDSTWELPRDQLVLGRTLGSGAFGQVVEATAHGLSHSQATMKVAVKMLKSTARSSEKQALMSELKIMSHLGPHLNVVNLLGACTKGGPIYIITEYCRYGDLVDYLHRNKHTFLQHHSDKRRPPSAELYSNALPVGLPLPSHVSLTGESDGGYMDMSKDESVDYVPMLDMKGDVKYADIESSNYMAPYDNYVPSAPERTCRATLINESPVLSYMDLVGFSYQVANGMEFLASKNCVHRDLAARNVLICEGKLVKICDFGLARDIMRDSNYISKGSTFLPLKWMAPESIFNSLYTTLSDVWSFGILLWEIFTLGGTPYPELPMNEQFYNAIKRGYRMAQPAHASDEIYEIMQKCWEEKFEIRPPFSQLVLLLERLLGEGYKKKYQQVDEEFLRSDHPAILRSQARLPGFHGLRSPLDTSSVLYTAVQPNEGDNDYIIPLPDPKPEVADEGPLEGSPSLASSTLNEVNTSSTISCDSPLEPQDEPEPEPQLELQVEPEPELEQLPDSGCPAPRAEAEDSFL
readout-label: IC50 (nM)
Give bare numbers, in nM.

Q) # IC50 lookup, item `Cc1nc(NC(=O)CN2CCN(C)CC2)sc1-c1ccc2c(/C=C/c3ccccn3)n[nH]c2c1`
A) 95.7

====

measured-target: High affinity nerve growth factor receptor (Homo sapiens, UniProt P04629)
test-name: Inhibition of TEL fused wild type TRKA (unknown origin) transfected in mouse BaF3 cells assessed as reduction in phosphorylation at Y490 residue after 2 hrs by Western blot analysis
Format: cell-based
Sequence (P04629 whole entry, the tested form may be a part): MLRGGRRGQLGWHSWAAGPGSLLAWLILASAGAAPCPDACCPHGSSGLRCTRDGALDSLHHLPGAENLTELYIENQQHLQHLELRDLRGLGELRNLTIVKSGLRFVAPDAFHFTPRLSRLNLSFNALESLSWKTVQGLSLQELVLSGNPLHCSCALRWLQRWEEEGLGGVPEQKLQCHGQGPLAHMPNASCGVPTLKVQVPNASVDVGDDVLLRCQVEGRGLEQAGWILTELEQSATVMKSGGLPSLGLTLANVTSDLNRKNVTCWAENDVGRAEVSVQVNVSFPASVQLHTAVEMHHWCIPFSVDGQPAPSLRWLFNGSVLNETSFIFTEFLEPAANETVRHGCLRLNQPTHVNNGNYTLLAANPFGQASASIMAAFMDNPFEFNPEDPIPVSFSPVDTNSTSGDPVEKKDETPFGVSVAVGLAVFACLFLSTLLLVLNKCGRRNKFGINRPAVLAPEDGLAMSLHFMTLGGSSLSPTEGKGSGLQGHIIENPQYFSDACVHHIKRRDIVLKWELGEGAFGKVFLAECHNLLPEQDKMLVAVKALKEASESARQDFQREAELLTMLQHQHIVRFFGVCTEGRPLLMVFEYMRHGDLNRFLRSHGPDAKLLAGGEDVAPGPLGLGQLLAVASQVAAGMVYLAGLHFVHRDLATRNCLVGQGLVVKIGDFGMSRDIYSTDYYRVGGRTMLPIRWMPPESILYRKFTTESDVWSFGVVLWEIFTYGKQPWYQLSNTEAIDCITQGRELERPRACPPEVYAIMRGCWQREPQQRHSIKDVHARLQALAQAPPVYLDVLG
readout-label: pEC50
Answers are plain numbers, as −log10 of the molar value.

Q) Please state recorded pEC50 (tested on High affinity nerve growth factor receptor (Homo sapiens, UniProt P04629)) of `Cc1nc(NC(=O)CN2CCN(C)CC2)sc1-c1ccc2c(/C=C/c3ccccn3)n[nH]c2c1`
A) 7.59

====

test-name: Cmax in Beagle dog at 1 mg/kg, iv
Format: ADME, organism-based, Canis lupus familiaris
Design: route intravenous, dose 1 mg/kg
recorded-conditions: in vivo
readout-label: Cmax (ng/mL)
Answers are plain numbers, in ng/mL.

Q) # Cmax lookup, item `Cc1nc(NC(=O)CN2CCN(C)CC2)sc1-c1ccc2c(/C=C/c3ccccn3)n[nH]c2c1`
A) 284

====

test-name: AUC (0 to t) in mouse at 1 mg/kg, iv
Assay type: ADME, organism-based
Parameters: dose 1 mg/kg
recorded-conditions: in vivo
readout-label: AUC(0-t)
Number first, unit second: that is the form wanted.

Q) # AUC(0-t) lookup, item `Cc1nc(NC(=O)CN2CCN(C)CC2)sc1-c1ccc2c(/C=C/c3ccccn3)n[nH]c2c1`
A) 748 ng·h/mL

====

test-name: Cmax in mouse at 1 mg/kg, iv
Assay type: ADME, organism-based
Design: route intravenous, dose 1 mg/kg
recorded-conditions: in vivo
readout-label: Cmax (ng/mL)
Give bare numbers, in ng/mL.

Q) # Cmax lookup, item `Cc1nc(NC(=O)CN2CCN(C)CC2)sc1-c1ccc2c(/C=C/c3ccccn3)n[nH]c2c1`
A) 1110

====

For each record, write down the corresponding GI50 at 72 h.
test-name: Antiproliferative activity in mouse BAF3 cells assessed as growth inhibition after 72 hrs by CCK8 assay
Type: cell-based

For orientation, consider the following solved cases.
Q) # GI50 at 72 h lookup, item `Cc1nc(NC(=O)C2CCN(C)CC2)sc1-c1ccc2c(/C=C/c3ccccn3)n[nH]c2c1`
A) 2.51 µM

Q) Ok, now `CN1CCN(Cc2ccc(NC(=O)Nc3cccc(Sc4ccc5c(/C=C/c6ccccn6)n[nH]c5c4)c3)cc2C(F)(F)F)CC1`
A) 3.09 µM

Q) Ok, now `COc1ccc(CC(=O)Nc2nc(C)c(-c3ccc4c(/C=C/c5ccccn5)n[nH]c4c3)s2)cc1OC`
A) 4.87 µM

Q) Ok, now O=C(Nc1cnn2ccc(N3CCC[C@@H]3c3cc(F)ccc3F)nc12)N1CC[C@H](O)C1 [LAROTRECTINIB]
A) > 10 µM

Q) Ok, now `Cc1nc(NC(=O)CN2CCN(C)CC2)sc1-c1ccc2c(-c3cccnc3)n[nH]c2c1`
A) 5.13 µM

Need GI50 at 72 h for each of these compounds.
1. Cc1nc(NC(=O)Cc2cccc(C(F)(F)F)c2)sc1-c1ccc2c(/C=C/c3ccccn3)n[nH]c2c1
2. Cc1nc(NC(=O)Cc2cccc3ccccc23)sc1-c1ccc2c(/C=C/c3ccccn3)n[nH]c2c1

A)
2.31 µM
3.69 µM

Need GI50 at 72 h for each of these compounds.
1. Cc1nc(NC(=O)CN2CCN(C)CC2)sc1-c1ccc2c(-c3cncc(F)c3)n[nH]c2c1
2. Cc1nc(NC(=O)Cc2cccc(Cl)c2)sc1-c1ccc2c(/C=C/c3ccccn3)n[nH]c2c1
3. Cc1nc(NC(=O)C2CCNCC2)sc1-c1ccc2c(/C=C/c3ccccn3)n[nH]c2c1
4. Cc1nc(NC(=O)CC2CCN(C)CC2)sc1-c1ccc2c(/C=C/c3ccccn3)n[nH]c2c1
5. Cc1nc(NC(=O)C(N)Cc2ccccc2)sc1-c1ccc2c(/C=C/c3ccccn3)n[nH]c2c1 (stereo not drawn)

A)
1. 1.69 µM
2. 4.1 µM
3. 8.71 µM
4. 1.56 µM
5. 0.708 µM

====

test-name: Apparent clearance in Beagle dog at 5 mg/kg, po
Type: ADME, organism-based, Canis lupus familiaris
recorded-conditions: in vivo, read-out: CLz/F (converted)
readout-label: CL/F (mL/min/kg)
One number for each entry, in mL/min/kg.

Q) # CL/F lookup, item `Cc1nc(NC(=O)CN2CCN(C)CC2)sc1-c1ccc2c(/C=C/c3ccccn3)n[nH]c2c1`
A) 140

====

test-name: AUC (0 to t) in Sprague-Dawley rat at 1 mg/kg, iv
Type: ADME, organism-based
Design: dose 1 mg/kg
recorded-conditions: in vivo
readout-label: AUC(0-t) (µg·h/mL)
Numbers only, in µg·h/mL.

Q) # AUC(0-t) lookup, item `Cc1nc(NC(=O)CN2CCN(C)CC2)sc1-c1ccc2c(/C=C/c3ccccn3)n[nH]c2c1`
A) 0.393

====

measured-target: High affinity nerve growth factor receptor (Homo sapiens)
test-name: Inhibition of TRKA in human KM-12-LUC cells assessed as reduction in ERK1/2 phosphorylation at T202/Y204 residues after 2 hrs by Western blot analysis
Format: cell-based, KM12-Luc
pEC50: −log10 of the molar value.
readout-label: pEC50

Q) # pEC50 lookup, item `Cc1nc(NC(=O)CN2CCN(C)CC2)sc1-c1ccc2c(/C=C/c3ccccn3)n[nH]c2c1`
A) > 7.52

====

measured-target: High affinity nerve growth factor receptor (Homo sapiens)
test-name: Inhibition of wild type TEL fused TRKA (unknown origin) transfected in mouse BAF3 cells assessed as growth inhibition after 72 hrs by CCK8 assay
Assay type: cell-based
Sequence (P04629 33-796 limits assumed): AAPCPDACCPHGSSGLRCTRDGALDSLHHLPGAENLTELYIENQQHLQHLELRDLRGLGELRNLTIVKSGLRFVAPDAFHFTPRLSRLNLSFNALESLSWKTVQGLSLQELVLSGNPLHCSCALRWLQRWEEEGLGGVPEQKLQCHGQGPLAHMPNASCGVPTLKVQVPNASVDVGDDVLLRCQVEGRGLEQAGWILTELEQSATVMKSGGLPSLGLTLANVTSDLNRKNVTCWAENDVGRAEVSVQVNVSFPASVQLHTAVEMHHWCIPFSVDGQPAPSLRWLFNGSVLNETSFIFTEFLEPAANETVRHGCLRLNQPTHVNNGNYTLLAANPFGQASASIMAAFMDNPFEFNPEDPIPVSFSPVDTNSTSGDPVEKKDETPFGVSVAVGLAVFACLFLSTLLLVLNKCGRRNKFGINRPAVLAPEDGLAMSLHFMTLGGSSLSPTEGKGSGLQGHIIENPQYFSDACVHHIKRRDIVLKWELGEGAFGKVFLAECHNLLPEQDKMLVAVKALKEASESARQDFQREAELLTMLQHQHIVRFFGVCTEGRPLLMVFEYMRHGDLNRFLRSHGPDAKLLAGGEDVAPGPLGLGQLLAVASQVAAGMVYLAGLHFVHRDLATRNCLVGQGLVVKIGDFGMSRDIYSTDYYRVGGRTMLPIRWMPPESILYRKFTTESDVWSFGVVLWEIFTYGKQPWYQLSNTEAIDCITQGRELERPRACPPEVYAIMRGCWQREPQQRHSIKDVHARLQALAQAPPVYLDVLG
For each record, write down the corresponding GI50.
Numbers only, in µM.

Q) # GI50 lookup, item `CN1CCN(Cc2ccc(NC(=O)CCSc3ccc4c(-c5cccnc5)n[nH]c4c3)cc2C(F)(F)F)CC1`
A) 0.736

Q) Ok, now CSCCC(N)C(=O)Nc1nc(C)c(-c2ccc3c(/C=C/c4ccccn4)n[nH]c3c2)s1 (centres undefined)
A) 0.013

Q) Ok, now `CN1CCN(Cc2ccc(NC(=O)CCSc3ccc4c(/C=C/c5cnccn5)n[nH]c4c3)cc2C(F)(F)F)CC1`
A) 0.088

API: the following record is the query input.
Q) # GI50 lookup, item Cc1nc(NC(=O)C(N)Cc2ccccc2)sc1-c1ccc2c(/C=C/c3ccccn3)n[nH]c2c1 (centres undefined)
A) 0.068
